Reference source: patent US5536737A

Quick reference for IC50 among some compounds
Molecular target: prolyl endopeptidase (Rattus norvegicus)
Sequence (O70196 1-710): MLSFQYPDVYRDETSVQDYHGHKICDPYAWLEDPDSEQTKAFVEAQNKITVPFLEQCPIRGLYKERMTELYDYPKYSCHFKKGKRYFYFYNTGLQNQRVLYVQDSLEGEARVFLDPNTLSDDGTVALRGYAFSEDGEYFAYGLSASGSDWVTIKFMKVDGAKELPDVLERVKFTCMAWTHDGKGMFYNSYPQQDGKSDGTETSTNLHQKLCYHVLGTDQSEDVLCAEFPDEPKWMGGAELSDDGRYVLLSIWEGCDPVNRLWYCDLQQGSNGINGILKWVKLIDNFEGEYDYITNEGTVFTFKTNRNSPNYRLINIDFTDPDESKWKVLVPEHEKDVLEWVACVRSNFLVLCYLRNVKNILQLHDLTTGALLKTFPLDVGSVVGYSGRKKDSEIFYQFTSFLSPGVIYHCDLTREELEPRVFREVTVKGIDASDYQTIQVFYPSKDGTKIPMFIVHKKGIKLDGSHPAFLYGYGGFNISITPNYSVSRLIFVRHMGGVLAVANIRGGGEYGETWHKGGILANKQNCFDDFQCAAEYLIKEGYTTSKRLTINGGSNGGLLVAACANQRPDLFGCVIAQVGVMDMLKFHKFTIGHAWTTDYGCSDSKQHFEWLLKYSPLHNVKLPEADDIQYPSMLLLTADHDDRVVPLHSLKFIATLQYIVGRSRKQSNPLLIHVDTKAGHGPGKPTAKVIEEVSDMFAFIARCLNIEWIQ
MEASURED_ATTRIBUTE: IC50

{"columns": ["COMPOUND", "MEASURED_ATTRIBUTE", "RESULT"],
 "data": [
  ["COc1ccc(OCC(=O)N2CCC[C@H]2C(=O)N2CCC[C@H]2C(=O)COC(=O)C(C)(C)C)cc1", "IC50", "10 nM"],
  ["CC(=O)OCC(=O)[C@@H]1CCCN1C(=O)[C@@H]1CCCN1C(=O)NCc1ccccc1", "IC50", "0.1 nM"],
  ["CC(=O)OCC(=O)[C@@H]1CCCN1C(=O)[C@@H]1CCCN1C(=O)NCc1ccc(Cl)cc1", "IC50", "2 nM"],
  ["O=C(CO)[C@@H]1CCCN1C(=O)[C@@H]1CCCN1C(=O)NCCc1ccccc1", "IC50", "0.3 nM"],
  ["O=C(CO)[C@@H]1CCCN1C(=O)[C@@H]1CSCN1C(=O)OCc1ccccc1", "IC50", "1 nM"],
  ["CCCCCCCC(=O)N1CCC[C@H]1C(=O)N1CCC[C@H]1C(=O)CO", "IC50", "0.4 nM"],
  ["O=C(OCC(=O)[C@@H]1CCCN1C(=O)[C@@H]1CCCN1C(=O)NCc1ccccc1)c1ccccc1", "IC50", "0.1 nM"],
  ["CCCCCCCC(=O)N1CCC[C@H]1C(=O)N1CCC[C@H]1C(=O)COC(=O)c1ccccc1", "IC50", "8 nM"]
]}
